System: HEK293
protocol.text: Ability to block the uptake of [3H]- DA(dopamine) in HEK-hDAT cells
Format: functional, cell-based
applied.conditions: Homo sapiens
IC50 vs 0.09 µM: less than gives fulfilled; not less than gives not fulfilled.

Answered examples (5):
Exercise: Lab note: IC50 threshold 0.09 µM. Does this compound come in strictly under it? OC1(c2ccc(Cl)cc2)c2ccccc2C2=NCCCN21 (stereo unspecified)
Key: fulfilled

Exercise: Lab note: IC50 threshold 0.09 µM. Does this compound come in strictly under it? OC1(c2ccc(Cl)cc2)c2ccccc2C2=N[C@H]3CCCC[C@@H]3N21 (stereo partly specified)
Key: fulfilled

Exercise: Lab note: IC50 threshold 0.09 µM. Does this compound come in strictly under it? OC1(c2ccc3ccccc3c2)c2ccc3ccccc3c2C2=NCCN21 (stereo unspecified)
Key: not fulfilled

Exercise: Lab note: IC50 threshold 0.09 µM. Does this compound come in strictly under it? OC1(c2ccc3ccccc3c2)c2ccccc2C2=NCCN21 (stereo unspecified)
Key: fulfilled

Exercise: Lab note: IC50 threshold 0.09 µM. Does this compound come in strictly under it? OC1(c2ccc(Cl)cc2)c2ccc3ccccc3c2C2=NCCCN21 (stereo unspecified)
Key: not fulfilled

For the next question, use this compound.
Exercise: Lab note: IC50 threshold 0.09 µM. Does this compound come in strictly under it? OC1(c2ccc(Cl)cc2)c2ccc3ccccc3c2C2=NCCN21 (stereo unspecified)
Key: fulfilled
